Test: Lipophilicity, logD of compound in octanol and aqueous buffer at pH 7.4 incubated for 2 hrs by shake-flask method based LC-MS/MS analysis
Format: physicochemical
This section presents compounds with their documented logD at 2 h values.
Number only, please.

Before answering, review these 5 worked examples.
COMPOUND STRING: C=CC(=O)N1C[C@@H](n2cc(-c3ccncc3)c(-c3cccc(COc4ccc5c(c4)CN(C)C5=O)c3)n2)C[C@H]1C
REPORTED RESULT: 3.4

COMPOUND STRING: C=CC(=O)N1CC[C@H](n2cc(-c3ccncc3)c(-c3cccc(/C=C/c4cc5n(n4)CCOC5)c3)n2)C1
REPORTED RESULT: 3.5

COMPOUND STRING: C=CC(=O)N1CC[C@H](n2cc(-c3ccncc3)c(-c3cc(OCc4ccc5c(c4)CN(C)C5=O)ccc3F)n2)C1
REPORTED RESULT: 2.7

COMPOUND STRING: C=CC(=O)N1CC(n2cc(-c3ccncc3)c(-c3cccc(/C=C/c4ncc(C5CC5)o4)c3)n2)C1
REPORTED RESULT: 4.4

COMPOUND STRING: C=CC(=O)Nc1ccc(OC)c(Nc2cc(-c3c[nH]nc3-c3cccc(OCc4ccc5c(c4)CN(C)C5=O)c3)ccn2)c1
REPORTED RESULT: 3.9

Please examine the following record next.
Reported logD at 2 h for "C=CC(=O)N1CC[C@H](n2cc(-c3ccncc3)c(-c3cccc(/C=C/c4ccc5c(c4)CN(C)C5=O)c3)n2)C1" was 3.9

###

Experiment: Metabolic stability in rat hepatocytes assessed as intrinsic clearance measured per 10^6 cells at 1 uM incubated for 120 mins by LC-MS/MS analysis
Format: ADME, cell-based, Hepatocyte
Conditions: read-out: CLH
This section presents compounds with their documented hepatocyte CLint at 1 µM values.
Quick note: give the figure in µL/min/1e6 cells, leave out the unit.

COMPOUND STRING: C=CC(=O)N1CC[C@H](n2cc(-c3ccncc3)c(-c3cccc(NC(=O)c4ccc5c(c4)CN(C)C5=O)c3)n2)C1
UNIT: µL/min/1e6 cells
hepatocyte CLint at 1 µM: 21
--
COMPOUND STRING: C=CC(=O)N1C[C@@H](n2cc(-c3ccncc3)c(-c3cccc(COc4ccc5c(c4)CN(C)C5=O)c3)n2)C[C@H]1C
UNIT: µL/min/1e6 cells
hepatocyte CLint at 1 µM: 58
--
COMPOUND STRING: C=CC(=O)N1CC[C@H](n2cc(-c3ccncn3)c(-c3cccc(/C=C/c4ncc(C5CC5)o4)c3)n2)C1
UNIT: µL/min/1e6 cells
hepatocyte CLint at 1 µM: 67
--
COMPOUND STRING: C=CC(=O)N1CC(n2cc(-c3ccncc3)c(-c3cccc(NC(=O)c4cn(C5CC5)cn4)c3)n2)C1
UNIT: µL/min/1e6 cells
hepatocyte CLint at 1 µM: 58
--
COMPOUND STRING: C=CC(=O)N1CC[C@H](n2cc(-c3ccncc3)c(-c3cccc(NC(=O)c4cccc(OC)c4F)c3)n2)C1
UNIT: µL/min/1e6 cells
hepatocyte CLint at 1 µM: 51

Please examine the following record next.
Reported hepatocyte CLint at 1 µM for "C=CC(=O)N1C[C@@H](n2cc(-c3ccncc3)c(-c3ccc(F)c(COc4ccc5c(c4)CN(C)C5=O)c3)n2)C[C@H]1C" was 173
